# key: entry, value: normalized RNA/DNA level without ligand (log10)
B1: library; a variant is named by its letters at N, in order (parent)
chain: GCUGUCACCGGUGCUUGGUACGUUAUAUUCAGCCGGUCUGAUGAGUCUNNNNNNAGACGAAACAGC

# Variants of: B1
# test details: normalized RNA/DNA level without ligand (relative to sTRSVctl = 100) (log10 (% of sTRSVctl)); HEK293T overexpressing SLC46A1; higher = less ribozyme self-cleavage, higher mRNA level
# condition summary: without (6R,S)-folinic acid; ligand present: no
Hey, just send me the number, nothing else.

Examples with their reported normalized RNA/DNA level without ligand (log10) follow.
sequence entry: GCUGUCACCGGUGCUUGGUACGUUAUAUUCAGCCGGUCUGAUGAGUCUAGAAUCAGACGAAACAGC [AGAAUC]
quantitative result: 2.06
//
sequence entry: GCUGUCACCGGUGCUUGGUACGUUAUAUUCAGCCGGUCUGAUGAGUCUGCCUUUAGACGAAACAGC [GCCUUU]
quantitative result: 2.04
//
sequence entry: GCUGUCACCGGUGCUUGGUACGUUAUAUUCAGCCGGUCUGAUGAGUCUUCGUGGAGACGAAACAGC [UCGUGG]
quantitative result: 1.95
//
sequence entry: GCUGUCACCGGUGCUUGGUACGUUAUAUUCAGCCGGUCUGAUGAGUCUAUGUACAGACGAAACAGC [AUGUAC]
quantitative result: 1.96
//
sequence entry: GCUGUCACCGGUGCUUGGUACGUUAUAUUCAGCCGGUCUGAUGAGUCUAACUGCAGACGAAACAGC [AACUGC]
quantitative result: 2.05

## Task Which normalized RNA/DNA level without ligand (log10) is reported for this variant? GCUGUCACCGGUGCUUGGUACGUUAUAUUCAGCCGGUCUGAUGAGUCUGGCGAAAGACGAAACAGC [GGCGAA]
## Result 2.05

## Task Which normalized RNA/DNA level without ligand (log10) is reported for this variant? GCUGUCACCGGUGCUUGGUACGUUAUAUUCAGCCGGUCUGAUGAGUCUUUAGCUAGACGAAACAGC [UUAGCU]
## Result 2.01

## Task Which normalized RNA/DNA level without ligand (log10) is reported for this variant? GCUGUCACCGGUGCUUGGUACGUUAUAUUCAGCCGGUCUGAUGAGUCUAUCUACAGACGAAACAGC [AUCUAC]
## Result 2.01

## Task Which normalized RNA/DNA level without ligand (log10) is reported for this variant? GCUGUCACCGGUGCUUGGUACGUUAUAUUCAGCCGGUCUGAUGAGUCUAGACGGAGACGAAACAGC [AGACGG]
## Result 1.93
